Biological target: T1, Full-length human TIGIT on CHO-K1 cells (CHO-K1 human TIGIT) (human, UniProt Q495A1 22-244)
T1 construct: NCBI XP_024309156.1; the entry includes the signal peptide (limits not recoverable); The strain (high, medium, low) is named under assay; also called high expression strain 1D2; medium expression strain 2D10
T1 sequence: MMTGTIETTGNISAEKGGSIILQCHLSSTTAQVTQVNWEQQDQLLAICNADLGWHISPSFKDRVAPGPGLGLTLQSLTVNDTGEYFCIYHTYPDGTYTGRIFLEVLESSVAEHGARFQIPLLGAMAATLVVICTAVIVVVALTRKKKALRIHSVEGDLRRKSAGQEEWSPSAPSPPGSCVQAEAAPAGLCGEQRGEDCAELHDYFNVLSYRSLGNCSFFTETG
Assay: cell binding, CHO-K1 human TIGIT high expression strain
The binders listed here are annotated with their EC50.

Binder	EC50 (nM)
TIGIT-070-H3L3 (antibody, V domains shown, Humanized anti-TIGIT antibody) VH: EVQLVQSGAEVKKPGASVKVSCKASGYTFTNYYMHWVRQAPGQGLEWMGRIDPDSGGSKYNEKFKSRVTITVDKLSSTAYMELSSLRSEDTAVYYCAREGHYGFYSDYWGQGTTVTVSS VL: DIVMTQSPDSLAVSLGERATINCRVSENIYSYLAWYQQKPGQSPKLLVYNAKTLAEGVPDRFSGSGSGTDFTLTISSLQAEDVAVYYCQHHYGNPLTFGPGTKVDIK	0.03
TIGIT-006-H2L1 (antibody, V domains shown, Humanized anti-TIGIT antibody) VH: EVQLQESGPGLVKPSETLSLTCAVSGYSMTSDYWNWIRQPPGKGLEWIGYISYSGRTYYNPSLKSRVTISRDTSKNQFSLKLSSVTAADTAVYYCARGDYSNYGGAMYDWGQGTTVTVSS VL: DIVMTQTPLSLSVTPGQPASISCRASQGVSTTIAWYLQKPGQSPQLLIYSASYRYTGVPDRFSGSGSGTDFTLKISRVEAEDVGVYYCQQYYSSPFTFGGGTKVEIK	0.0383
TIGIT-006-H5L1 (antibody, V domains shown, Humanized anti-TIGIT antibody) VH: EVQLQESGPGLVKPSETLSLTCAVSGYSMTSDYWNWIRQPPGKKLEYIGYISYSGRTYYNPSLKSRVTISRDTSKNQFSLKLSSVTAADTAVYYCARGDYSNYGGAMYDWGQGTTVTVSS VL: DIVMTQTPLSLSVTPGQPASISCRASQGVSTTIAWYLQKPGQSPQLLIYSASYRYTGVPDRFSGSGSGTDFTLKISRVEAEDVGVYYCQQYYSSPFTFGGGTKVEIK	0.0399
TIGIT-002-H1L3 (antibody, V domains shown, Humanized anti-TIGIT antibody) VH: EVQLQESGPGLVKPSETLSLTCAVSGYSITSDSWNWIRQPPGKGLEWIGYISYSGNTYYNPSLKSRVTISRDTSKNQFSLKLSSVTAADTAVYYCARLDFSNYGGAVDYWGQGTTVTVSS VL: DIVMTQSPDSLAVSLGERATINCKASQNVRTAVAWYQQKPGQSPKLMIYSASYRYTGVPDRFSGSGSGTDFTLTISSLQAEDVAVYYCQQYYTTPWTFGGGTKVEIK	0.0253
TIGIT-006-H3L2 (antibody, V domains shown, Humanized anti-TIGIT antibody) VH: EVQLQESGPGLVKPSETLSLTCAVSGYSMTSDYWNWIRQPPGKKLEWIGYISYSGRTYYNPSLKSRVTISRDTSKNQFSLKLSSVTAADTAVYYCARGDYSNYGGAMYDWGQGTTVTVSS VL: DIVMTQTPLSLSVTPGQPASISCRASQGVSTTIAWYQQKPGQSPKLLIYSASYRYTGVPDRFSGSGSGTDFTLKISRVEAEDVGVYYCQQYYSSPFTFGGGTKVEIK	0.0494
TIGIT-070-H2L1 (antibody, V domains shown, Humanized anti-TIGIT antibody) VH: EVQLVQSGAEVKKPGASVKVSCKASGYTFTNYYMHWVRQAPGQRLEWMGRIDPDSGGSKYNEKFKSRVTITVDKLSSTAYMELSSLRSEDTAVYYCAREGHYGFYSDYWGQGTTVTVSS VL: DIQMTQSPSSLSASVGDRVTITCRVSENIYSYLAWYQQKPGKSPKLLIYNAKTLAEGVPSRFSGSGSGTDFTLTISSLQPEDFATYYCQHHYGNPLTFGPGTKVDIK	0.0236
TIGIT-005-H2L1a (antibody, V domains shown, Humanized anti-TIGIT antibody with NG-site mutation in VL) VH: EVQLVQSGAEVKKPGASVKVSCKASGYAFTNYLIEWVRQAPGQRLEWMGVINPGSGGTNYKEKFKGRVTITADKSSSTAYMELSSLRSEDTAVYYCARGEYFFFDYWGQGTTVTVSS VL: DIVMTQSPDSLAVSLGERATINCKASQHVSQGVAWYQHKPGQSPKLLIYSASYRYTGVPDRFSGSGSGTDFTLTISSLQAEDVAVYYCQQHYNTPHTFGGGTKVEIK	0.0129
TIGIT-006-H2L3 (antibody, V domains shown, Humanized anti-TIGIT antibody) VH: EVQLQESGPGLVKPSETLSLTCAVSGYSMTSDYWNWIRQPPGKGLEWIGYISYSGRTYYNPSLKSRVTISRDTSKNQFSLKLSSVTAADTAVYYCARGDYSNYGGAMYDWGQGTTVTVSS VL: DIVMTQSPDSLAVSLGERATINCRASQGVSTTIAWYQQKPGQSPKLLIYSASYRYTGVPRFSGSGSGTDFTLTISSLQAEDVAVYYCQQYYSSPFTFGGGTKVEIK	0.0353
TIGIT-006-H2L2 (antibody, V domains shown, Humanized anti-TIGIT antibody) VH: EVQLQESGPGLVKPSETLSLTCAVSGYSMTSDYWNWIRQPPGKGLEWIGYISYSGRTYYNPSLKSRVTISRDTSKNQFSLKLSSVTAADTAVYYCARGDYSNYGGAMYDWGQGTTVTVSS VL: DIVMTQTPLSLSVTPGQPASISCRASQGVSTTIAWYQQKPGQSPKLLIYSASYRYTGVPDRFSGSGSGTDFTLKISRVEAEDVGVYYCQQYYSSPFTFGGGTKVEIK	0.0444
TIGIT-070-H1L3 (antibody, V domains shown, Humanized anti-TIGIT antibody) VH: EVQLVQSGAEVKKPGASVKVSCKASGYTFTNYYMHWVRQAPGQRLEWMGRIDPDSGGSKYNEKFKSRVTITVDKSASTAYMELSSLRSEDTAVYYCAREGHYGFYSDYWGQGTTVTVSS VL: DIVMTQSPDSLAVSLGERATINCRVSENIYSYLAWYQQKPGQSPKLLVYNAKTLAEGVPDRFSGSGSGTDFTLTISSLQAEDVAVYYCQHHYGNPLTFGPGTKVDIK	0.024
